Tested on: HOP-18
Assay: NCI tumour cell line growth inhibition, 48 h
Calls of active or inactive are those of the source. No stated cut-off is given here; in the data, active = GI50 up to about 1.1 µM and inactive = higher.
Measure: GI50

Requested read-out: GI50. Entry: CCOC(=O)C12CC1(C(=O)OCC)C1CCC2C1 (stereo not drawn)
> 100 µM (inactive)

Subsequent entry: `c1ccc2c(c1)OCCOCCOc1ccccc1OCCO2`
34.2 µM (inactive)

Also check `Nc1cc2c(cc1[N+](=O)[O-])[nH]c1c(-c3ccccc3)nccc12`
8.41 µM (inactive)

Similarly, `CC(=O)OCc1ncccc1C(OC(C)=O)OC(C)=O` ?
> 100 µM (inactive)

Also need `CCN(CC)C(=S)SS(C)(=O)=O` , thanks.
38.2 µM (inactive)

Continue with `O=C(O)c1c2c(c(C(=O)O)c3ccccc13)-c1ccccc1-2`
20.4 µM (inactive)

Queued: N=C(N)NCCCC(NCc1c2ccccc2[n+]([O-])c2ccccc12)C(=O)O (stereo not drawn)
> 100 µM (inactive)

Could you do the same for `O=C(O)c1c(-c2cccc3ccccc23)sc(-c2cccc3ccccc23)c1C(=O)O` , please?
96.2 µM (inactive)

Further, for `CCN(CC)/C(=C\Cl)Nc1ccccn1.[O-][Cl+3]([O-])([O-])O` ?
> 100 µM (inactive)

How about `Cc1ncc(CCl)c2c1OC(C)(C)OC2` ?
21.1 µM (inactive)

Now the compound `Cc1nc(-c2ccccc2)cc2c1c(=O)oc1ccccc12`
> 100 µM (inactive)

And for `C/C=C/CP(=O)(c1ccccc1)c1ccccc1` ?
> 100 µM (inactive)

Cool, now `Cc1ccc(-c2nc3c(C(=O)NCCN(C)C)cccc3[nH]2)cc1`
15.3 µM (inactive)

* * *

Tested on: DLD-1
Assay: NCI tumour cell line growth inhibition, 48 h
The source made the active and inactive calls. Rule as the data show it: active = GI50 up to about 1.1 µM and inactive = higher.
Measure: GI50

I'd like to know its GI50. The molecule in question is `COc1nc2[nH]ccc2c(=O)n1C`
> 100 µM (inactive)

Same question, `CCN(CC)C(=O)C/C(C)=N/NC(=O)c1ccncc1` this time
> 100 µM (inactive)

How about `C/C=C/CP(=O)(c1ccccc1)c1ccccc1` ?
> 100 µM (inactive)

Subsequent entry: `Cc1nc(Nc2ccc(Cl)cc2)sc1C(=O)NNc1ccc([N+](=O)[O-])cc1[N+](=O)[O-]`
14.2 µM (inactive)

Can you handle `CCc1cc(CCC(=O)Nc2c(C)cccc2C)n[nH]1` next?
> 100 µM (inactive)

And what about the molecule `O=C(O)c1c(-c2cccc3ccccc23)sc(-c2cccc3ccccc23)c1C(=O)O` ?
> 100 µM (inactive)

Field entry: O=NN(CCCl)C(=O)NC1CCC(CC2CCC(NC(=O)N(CCCl)N=O)CC2)CC1 (stereo not drawn)
23.6 µM (inactive)

Item: `Cc1cccc2c1C(=O)OC2(c1cccc2ccccc12)c1cccc2ccccc12`
> 100 µM (inactive)

And what about the molecule O=c1[nH]c(=O)n(C2OC(CO)C(O)C2O)cc1/N=N/NCc1ccccc1 (stereo not drawn) ?
> 60.1 µM (inactive)

And then Cc1ccc(NC(=O)C2C(=O)N(c3ccc(C)c(C)c3)C(=O)C2N=N)cc1C (stereo not drawn) , what is it?
> 100 µM (inactive)

Also need N=C(N)NCCCC(NCc1c2ccccc2[n+]([O-])c2ccccc12)C(=O)O (stereo not drawn) , thanks.
38.8 µM (inactive)

Next: `Nc1cc2c(cc1[N+](=O)[O-])[nH]c1c(-c3ccccc3)nccc12`
8.2 µM (inactive)

Next entry: `Cc1cc(NC(=O)C(=O)Cc2nc3ccccc3s2)ccc1Cl`
> 100 µM (inactive)
